# study.system: human FXR (NR1H4) (Homo sapiens, UniProt Q96RI1)
# assay.procedure: Human FXR (NR1H4) Assay: Gal4 promoter driven luciferase reporter transactivation in CHO cells (Indigo Bioscience kit IB00601)
# Assay type: cell-based
# study.conditions: potency range, Human FXR (NR1H4) reporter assay in CHO cells; read-out: EC50
// EC50 lookup, one value per entry

See these solved cases before continuing.
CC1(S(=O)(=O)NC(=O)c2ccc(NC(=O)N3C4CCC3CC(OCc3c(-c5c(Cl)cccc5Cl)noc3C3CC3)C4)c(F)c2)CC1 (stereo not shown) = 100 to 1000 nM
COc1ccc(C(=O)O)cc1NC(=O)N1C2CCC1CC(OCc1c(-c3ccccc3OC(F)(F)F)noc1C1CC1)C2 (stereo not shown) = 100 to 1000 nM
O=C(Nc1cnc2ccccc2c1)N1C2CCC1CC(OCc1c(-c3c(Cl)cccc3Cl)noc1C1CC1)C2 (stereo not shown) = 10 to 100 nM
COc1cc(C(=O)O)ccc1NC(=O)N1C2CCC1CC(OCc1c(-c3c(Cl)cccc3Cl)noc1C1CC1)C2 (stereo not shown) = < 10 nM

Problem: Dear colleague, I am looking for the recorded EC50 of the following molecule: NS(=O)(=O)c1cccc(NC(=O)N2C3CCC2CC(OCc2c(-c4c(Cl)cccc4Cl)noc2C2CC2)C3)c1 (stereo not shown)
Solution: 100 to 1000 nM

Problem: Bench note: what EC50 did CC(C)(C)c1ccc(S(=O)(=O)NC(=O)c2cccc(NC(=O)N3C4CCC3CC(OCc3c(-c5ccccc5OC(F)(F)F)noc3C3CC3)C4)c2)cc1 (stereo not shown) show?
Solution: > 1000 nM

Problem: Quick check: EC50 of COC(=O)c1ccc(NC(=O)N2C3CCC2CC(OCc2c(-c4c(Cl)cccc4Cl)noc2C2CC2)C3)c(C(F)(F)F)c1 (stereo not shown) ?
Solution: 100 to 1000 nM

----------
# study.system: human FXR (NR1H4) (Homo sapiens, UniProt Q96RI1)
# assay.procedure: Human FXR (NR1H4) Assay: Gal4 promoter driven luciferase reporter transactivation in CHO cells (Indigo Bioscience kit IB00601)
# Format: cell-based
# study.conditions: EC50, potency range, Human FXR (NR1H4) reporter assay in CHO cells
measurement.name: EC50

COC(=O)c1ccc2c(c1)CN(C(=O)N1C3CCC1CC(OCc1c(-c4ccccc4OC(F)(F)F)noc1C1CC1)C3)C2 (centres unmarked) = 100 to 1000 nM

From here, focus on the item given below.
Problem: Query: EC50; subject: O=C(Nc1cccc(-c2ccccc2)c1)N1C2CCC1CC(NCc1c(-c3c(Cl)cccc3Cl)noc1C1CC1)C2 (centres unmarked)
Solution: 10 to 100 nM

----------
# study.system: UniProt:Q96RI1
# assay.procedure: Human FXR (NR1H4) Assay: Gal4 promoter driven luciferase reporter transactivation in CHO cells (Indigo Bioscience kit IB00601)
# Format: cell-based
# study.conditions: potency range, Human FXR (NR1H4) reporter assay in CHO cells; read-out: EC50
pEC50: −log10 of the molar value.
measurement.name: pEC50

COC(=O)c1ccc(NC(=O)N2C3CCC2CC(OCc2c(-c4c(Cl)cccc4Cl)noc2C2CC2)C3)cc1F (stereo not shown) = > 8.00
CCOC(=O)c1ccnc(NC(=O)N2C3CCC2CC(OCc2c(-c4ccccc4OC(F)(F)F)noc2C2CC2)C3)c1 (stereo not shown) = 7.00 to 8.00
O=C(O)c1c(F)cc(NC(=O)N2C3CCC2CC(OCc2c(-c4c(Cl)cccc4Cl)noc2C2CC2)C3)cc1F (stereo not shown) = 6.00 to 7.00

Problem: Using the record for O=C(O)c1ccc(NC(=O)N2C3CCC2CC(OCc2c(-c4c(Cl)cccc4Cl)noc2C2CC2)C3)cc1F (stereo not shown) , report its pEC50.
Solution: 7.00 to 8.00

----------
# study.system: human FXR (NR1H4) (Homo sapiens, UniProt Q96RI1)
# assay.procedure: Human FXR (NR1H4) Assay: Gal4 promoter driven luciferase reporter transactivation in CHO cells (Indigo Bioscience kit IB00601)
# Format: cell-based
# study.conditions: potency range, Human FXR (NR1H4) reporter assay in CHO cells; read-out: EC50
measurement.name: EC50

Problem: Consider the molecule CN(C)C(=O)c1cccc(NC(=O)N2C3CCC2CC(OCc2c(-c4c(Cl)cccc4Cl)noc2C2CC2)C3)c1 (stereo not drawn) and give its measured EC50.
Solution: < 10 nM

Problem: Would you mind telling me what EC50 value was observed for O=C(O)c1ccc(NC(=O)N2C3CCC2CC(OCc2c(C4CCC5(CC4)CC5)noc2C2CC2)C3)cc1-c1ccccc1 (stereo not drawn) ?
Solution: 10 to 100 nM

Problem: Look up EC50 for this molecule: COC(=O)c1ccc(NC(=O)N2C3CCC2CC(OCc2c(-c4c(Cl)cccc4Cl)noc2C2CC2)C3)c(C#N)c1 (stereo not drawn)
Solution: 100 to 1000 nM

----------
# study.system: human FXR (NR1H4) (Homo sapiens, UniProt Q96RI1)
# Sequence (Q96RI1 1-486): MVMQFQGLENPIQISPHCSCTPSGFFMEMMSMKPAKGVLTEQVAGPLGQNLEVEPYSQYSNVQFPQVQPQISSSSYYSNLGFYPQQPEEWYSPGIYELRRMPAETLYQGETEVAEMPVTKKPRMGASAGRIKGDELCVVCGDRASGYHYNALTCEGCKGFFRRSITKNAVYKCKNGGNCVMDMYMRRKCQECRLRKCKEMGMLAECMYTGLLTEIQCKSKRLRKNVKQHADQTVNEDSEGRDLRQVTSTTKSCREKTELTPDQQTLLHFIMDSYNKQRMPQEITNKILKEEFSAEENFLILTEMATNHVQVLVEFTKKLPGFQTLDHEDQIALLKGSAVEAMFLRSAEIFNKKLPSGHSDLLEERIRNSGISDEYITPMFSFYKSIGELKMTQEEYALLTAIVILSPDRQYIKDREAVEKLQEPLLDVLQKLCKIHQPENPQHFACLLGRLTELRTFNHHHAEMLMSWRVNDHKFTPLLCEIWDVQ
# assay.procedure: Human FXR (NR1H4) Assay: Gal4 promoter driven luciferase reporter transactivation in CHO cells (Indigo Bioscience kit IB00601)
# Format: cell-based
# study.conditions: potency range, Human FXR (NR1H4) reporter assay in CHO cells; read-out: EC50
pEC50: −log10 of the molar value.
measurement.name: pEC50

N#Cc1cc(F)cc(NC(=O)N2C3CCC2CC(OCc2c(-c4c(Cl)cccc4Cl)noc2C2CC2)C3)c1 (stereo not drawn) [Example 704] = > 8.00

Problem: Need pEC50 of O=C(NC1CCCCC1)N1C2CCC1CC(OCc1c(-c3c(Cl)cccc3Cl)noc1C1CC1)C2 (stereo not drawn) [Example 30] , thanks.
Solution: 7.00 to 8.00

Problem: For O=C(Nc1ccccn1)N1C2CCC1CC(OCc1c(-c3c(Cl)cccc3Cl)noc1C1CC1)C2 (stereo not drawn) [Example 16] , what is its reported pEC50?
Solution: 6.00 to 7.00

Problem: So what's the measured pEC50 for this one? O=C(Nc1cc(F)c(F)c(F)c1)N1C2CCC1CC(OCc1c(-c3c(Cl)cccc3Cl)noc1C1CC1)C2 (stereo not drawn) [Example 10]
Solution: 7.00 to 8.00

Problem: Using the record for Cn1nnc(-c2cccc(NC(=O)N3C4CCC3CC(OCc3c(-c5c(Cl)cccc5Cl)noc3C3CC3)C4)c2)n1 (stereo not drawn) [Example 187] , report its pEC50.
Solution: 7.00 to 8.00

Problem: Bench note: what pEC50 did O=C(O)c1ccc(NC(=O)N2C3CCC2CC(OCc2c(-c4c(Cl)cccc4Cl)noc2C2CC2)C3)nc1 (stereo not drawn) [Example 788] show?
Solution: 7.00 to 8.00

----------
# study.system: human FXR (NR1H4) (Homo sapiens, UniProt Q96RI1)
# assay.procedure: Human FXR (NR1H4) Assay: Gal4 promoter driven luciferase reporter transactivation in CHO cells (Indigo Bioscience kit IB00601)
# Assay type: cell-based
# study.conditions: CHO, efficacy normalized to CDCA set as 100%; read-out: Efficacy (%)
Reported Emax is given for each of the following compounds.
Record the value in %, omitting the unit from your answer.

Here are 5 compounds together with their reported answers.
CCOC(=O)c1ccc(NC(=O)N2C3CCC2CC(OCc2c(-c4c(Cl)cccc4Cl)noc2C2CC2)C3)cc1-c1cncnc1 (stereo not drawn) [Example 778] = 248
O=C(Nc1ccccc1)N1C2CCC1CC(OCc1c(-c3c(Cl)cccc3Cl)noc1C1CC1)C2 (stereo not drawn) [Example 696] = 246
COC(=O)c1ccc(F)c(NC(=O)N2C3CCC2CC(OCc2c(-c4c(Cl)cccc4Cl)noc2C2CC2)C3)c1 (stereo not drawn) [Example 722] = 115
O=C(O)c1ccc(NC(=O)N2C3CCC2CC(OCc2c(-c4c(Cl)cccc4Cl)noc2C2CC2)C3)c(F)c1-c1ccccc1 (stereo not drawn) [Example 798] = 124
COC(=O)CNC(=O)c1ccc(NC(=O)N2C3CCC2CC(OCc2c(-c4c(Cl)cccc4Cl)noc2C2CC2)C3)c(F)c1 (stereo not drawn) [Example 781] = 100

Problem: Query (compound): CCOC(=O)c1ccc(NC(=O)N2C3CCC2CC(NCc2c(-c4c(Cl)cccc4Cl)noc2C2CC2)C3)cc1 (stereo not drawn) [Example 825] ; field requested: Emax
Solution: 104
